target_desc: LasR (Pseudomonas aeruginosa, UniProt P25084)
Construct: expressed in transfected cells; host or cells: E. coli DH5α carrying pJN105-L and pSC11-L
Sequence (P25084 whole entry): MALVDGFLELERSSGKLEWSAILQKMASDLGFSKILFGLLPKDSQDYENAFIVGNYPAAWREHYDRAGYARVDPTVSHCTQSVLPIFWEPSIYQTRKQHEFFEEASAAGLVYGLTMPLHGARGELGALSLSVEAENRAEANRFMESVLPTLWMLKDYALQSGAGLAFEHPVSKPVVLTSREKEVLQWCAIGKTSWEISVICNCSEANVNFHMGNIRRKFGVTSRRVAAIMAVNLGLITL
method_notes: E. coli LasR bioreporter (Para-lasR, PlasI-lacZ), β-galactosidase readout
Format: cell-based
measurement_conditions: IC50 ± CI, LasR reporter, competed against 100 nM 3OC12-HSL; 95% confidence interval in parentheses
Threshold 2000 µM: IC50 strictly smaller gives T, otherwise F.

I'd appreciate it if you could check whether COc1cccc(C=O)c1O [ortho-Vanillin] has IC50 smaller than 2000 µM. T

I'd appreciate it if you could check whether COc1ccc(C=O)c(O)c1 [2-hydroxy-4-methoxybenzaldehyde] has IC50 smaller than 2000 µM. T

I'd appreciate it if you could check whether Cc1ccc(O)c(C=O)c1 [2-hydroxy-5-methylbenzaldehyde] has IC50 smaller than 2000 µM. T

I'd appreciate it if you could check whether O=C/C=C/c1ccccc1 [Cinnamaldehyde] has IC50 smaller than 2000 µM. T

I'd appreciate it if you could check whether Cc1cc(O)cc(O)c1C=O [Orsellinaldehyde] has IC50 smaller than 2000 µM. F
